- Tested on: UACC-257 melanoma
- test: NCI tumour cell line growth inhibition, 48 h
readoutLabel: TGI

Illustrative cases are given below, each with its answer.
- compound: "Fc1cccc(COc2ccc(Nc3ncncc3C#Cc3ccccc3)cc2Cl)c1"
  readoutLabel: "TGI"
  observedMeasurement: "> 25 µM"
- compound: "COC(=O)C1=C(C(=O)OC)C2OC1C1C2C2(C)C(C)=C(C)C1(C)S2=O (stereo not drawn)"
  readoutLabel: "TGI"
  observedMeasurement: "29.6 µM"
- compound: "NC(N)=N/N=C(/c1ccccc1)c1ccc(F)cc1"
  readoutLabel: "TGI"
  observedMeasurement: "32.8 µM"
- compound: "COc1cc(C(=O)NC2c3ccccc3-c3ccccc32)c(N)cc1OCc1ccccc1"
  readoutLabel: "TGI"
  observedMeasurement: "> 100 µM"
- compound: "O=C(/C=C/c1ccccc1)/C=C/c1ccccc1O"
  readoutLabel: "TGI"
  observedMeasurement: "44.3 µM"

Asked: Look up TGI: CCOC(=O)c1c(NC(=O)c2ccccc2)sc2c1CCCC2
Given back: > 100 µM

Asked: For O=C(C#Cc1c[nH]c(=O)[nH]c1=O)c1ccccc1Cl , what is its reported TGI?
Given back: 27.9 µM

Asked: I would be grateful if you could share the reported TGI for c1cc(-c2cnc(-c3ccc4c(c3)CCCO4)o2)ccn1 .
Given back: 28.8 µM
